Reported EC50 values for the following compounds.
- Experimental system: hClpP (Homo sapiens)
- Sequence (Q16740 57-277): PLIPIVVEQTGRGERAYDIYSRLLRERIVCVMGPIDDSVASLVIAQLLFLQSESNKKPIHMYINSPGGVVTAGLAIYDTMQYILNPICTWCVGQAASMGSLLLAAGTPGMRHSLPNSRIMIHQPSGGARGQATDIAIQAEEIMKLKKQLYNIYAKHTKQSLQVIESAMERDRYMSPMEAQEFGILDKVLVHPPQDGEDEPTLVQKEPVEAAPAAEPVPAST
- Method notes: activating ClpP hydrolysis of FITC-casein (fluorescence kinetic detection)
- Condition notes: hClpP 1 μM, FITC-Casein 4 μM, 37° C.
- Experimental: The specific procedures were as follows: Test compounds were each prepared into a 100 mM stock solution in DMSO and stored. and 1 μL of stock solution of each of the compounds was taken and diluted to 10 mM by adding 9 μL of DMSO for later use. The compounds of formula I of the present invention were each diluted at concentrations of 200 μM, 50 μM, 10 μM, 2 μM, 500 nM, 100 nM, 20 nM, and 2 nM in an assay buffer. […]
Readout kind: EC50

* N#Cc1cccc(CN2CCc3c(c(=O)n(Cc4ccc(Cl)cc4)c4ncccc34)C2)c1 | < 1 µM
* O=c1c2c(n3ncnc3n1Cc1ccc(C(F)(F)F)cc1)CCN(Cc1cccc(Cl)c1)C2 | 1 to 10 µM
* N#Cc1cccc(CN2CCc3c(c(=O)n(Cc4ccc(Cl)cc4)c4ncnn34)C2)c1 | 1 to 10 µM
* O=c1c2c(c3cccnc3n1Cc1ccccc1)CCN(Cc1ccccc1Br)C2 | 1 to 10 µM
* Cc1ccccc1Cn1c(=O)c2c(n3ccnc13)CCN(Cc1ccccc1)C2 | 1 to 10 µM
* O=c1c2c(c3cccnc3n1Cc1ccccc1Cl)CCN(Cc1ccccc1)C2 | 1 to 10 µM
* CCc1cccc(Cn2c(=O)c3c(c4cccnc42)CCN(Cc2ccccc2)C3)c1 | < 1 µM
* N#Cc1cccc(CN2CCc3c(c(=O)n(Cc4ccc(Br)cc4)c4ncccc34)C2)c1 | < 1 µM
* Cn1nccc1CN1CCc2c(c(=O)n(Cc3ccccc3)c3ncccc23)C1 | 10 to 100 µM
* COc1cccc(Cn2c(=O)c3c(c4cccnc42)CCN(Cc2ccccc2)C3)c1 | < 1 µM
* Cc1cccc(CN2CCc3c(c(=O)n(Cc4ccc(Cl)cc4)c4nccn34)C2)c1 | < 1 µM
* O=c1c2c(c3cccnc3n1Cc1ccccc1)CCN(Cc1ccc(Cl)cc1)C2 | 1 to 10 µM
* N#Cc1cccc(CN2CCc3c(c(=O)n(Cc4ccc(C(F)(F)F)cc4)c4ncnn34)C2)c1 | 1 to 10 µM
* CCc1ccc(Cn2c(=O)c3c(c4cccnc42)CCN(Cc2ccccc2)C3)cc1 | < 1 µM
* O=c1c2c(c3cccnc3n1Cc1ccc(Br)cc1)CCN(Cc1cccc(F)c1)C2 | < 1 µM
* O=c1c2c(c3cccnc3n1Cc1ccccc1)CCN(CC1CCC1)C2 | 10 to 100 µM
* O=c1c2c(c3cccnc3n1Cc1ccccc1Br)CCN(Cc1ccccc1)C2 | 1 to 10 µM
* O=c1c2c(n3ccnc3n1Cc1ccc(F)cc1)CCN(Cc1ccccc1)C2 | < 1 µM
* O=c1c2c(c3cccnc3n1CC1CCC1)CCN(Cc1ccccc1)C2 | 10 to 100 µM
* Cc1ncc(Cn2c(=O)c3c(c4cccnc42)CCN(Cc2ccccc2)C3)s1 | 10 to 100 µM
* O=c1c2c(n3ccnc3n1Cc1ccc(F)cc1F)CCN(Cc1ccccc1)C2 | < 1 µM
* COc1ccc(Cn2c(=O)c3c(c4cccnc42)CCN(Cc2cccc(C#N)c2)C3)cc1 | < 1 µM
* Cc1cccc(CN2CCc3c(c(=O)n(Cc4ccc(C(F)(F)F)cc4)c4nccn34)C2)c1 | < 1 µM
* CCc1ccccc1CN1CCc2c(c(=O)n(Cc3ccccc3)c3ncccc23)C1 | 1 to 10 µM
